# testTarget: EGF receptor kinase (intracellular domain of EGF receptor) (Homo sapiens, UniProt P00533)
# Construct: FLAG (N); made in house; host or cells: SF-21 insect cells infected with recombinant baculovirus BAC-EGFR
# Sequence (P00533 669-1210 limits assumed): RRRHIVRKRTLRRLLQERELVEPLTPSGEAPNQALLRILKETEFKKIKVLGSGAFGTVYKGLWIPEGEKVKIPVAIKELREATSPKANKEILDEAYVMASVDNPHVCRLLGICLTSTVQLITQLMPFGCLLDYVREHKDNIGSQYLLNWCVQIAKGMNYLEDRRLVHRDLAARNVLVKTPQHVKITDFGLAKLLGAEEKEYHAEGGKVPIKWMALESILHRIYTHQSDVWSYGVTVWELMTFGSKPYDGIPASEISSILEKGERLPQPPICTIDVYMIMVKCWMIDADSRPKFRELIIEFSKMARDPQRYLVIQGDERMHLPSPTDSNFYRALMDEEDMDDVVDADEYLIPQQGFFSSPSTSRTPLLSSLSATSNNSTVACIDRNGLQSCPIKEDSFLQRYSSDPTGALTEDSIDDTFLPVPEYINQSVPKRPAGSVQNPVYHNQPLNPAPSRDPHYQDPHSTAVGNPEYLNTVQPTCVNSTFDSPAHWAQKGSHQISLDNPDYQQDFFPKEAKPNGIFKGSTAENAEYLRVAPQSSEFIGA
# assayInfo: Measurement of inhibition activity of EGF receptor kinase
# Type: biochemical
# conditions: EGFR kinase; test compound 1.0 μM; biotinyl-poly-Glu:Tyr (4:1), α-screen assay, 25° C. 10 minutes; read-out: Inhibition rate (%) in 1.0 μM
Catalogue of compounds with associated inhibition at 1 µM
recordedMetric: inhibition at 1 µM (%)

Fc1cccc(COc2ccc(Nc3ncnc4sc(C5CC5)nc34)cc2Cl)c1 | 81
CC(=O)NCCCCCc1nc2c(Nc3ccc(OCc4cccc(F)c4)c(Cl)c3)ncnc2s1 | 81
COCCNC(=O)c1nc2c(Nc3ccc(OCc4cccc(F)c4)c(Cl)c3)ncnc2s1 | 91
CS(=O)(=O)CCNCCNC(=O)c1nc2c(Nc3ccc(OCc4cccc(F)c4)c(Cl)c3)ncnc2s1 | 88
